Catalogue of binders with associated % parasite recognition
# System Tested: erythrocytes infected with P. falciparum field isolate 11019
# Method Notes: flow cytometry, staining of IEs
Give the value, in units of %, as a plain number.

Solved cases (3 shown):
MGD34 (antibody) VH: EVQLVESGPGLMKTSGTLSLTCAVSGDYVNTNRRWSWVRQAPGKGLEWIGEVHQSGRTNYNPSLKSRVTISVDKSKNQFSLKVDSVTAADTAVYYCARASPLKSQRDTEDLPRPSISAEPGTVIPLGSHVTFVCRGPVGVQTFRLERERNYLYSDTEDVSQTSPSESEARFRIDSVNAGNAGLFRCIYYKSRKWSEQSDYLELVVKGEDVTWALSQSQVDPRACPQGELPISTDIYYVDVWGNGTTFTVSS VL: AIRMTQSPSSLSASPGDKVSITCRASQHINDSLAWFQQRPGKAPKLLIYGASNLHSGVPSRFSGTGSGTDFTLTITGLQSEDFATYFCQQCNCFPPDFGQGTRLEIK	46.6
MGC36 (antibody) VH: EVVLVESGGGLVQPGGSLRLSCEASGFNSRSYWMTWVRQAPGKGLEWVASINQDGTEKNYVDSVKGRFTISRDSAKNSLYLQMSSLRADDTAVYYCARDRFCGGESHLHGEEDLPRPSISAEPDTVIPLGSHVTFVCRGPVGVHTFRLERGWRYNDTEDVSQAGPSESEARFRIDSVREGNAGLYRCIYYIAPKWSEQSDYLELRVKGGDVTWALLTYCGGDGEESDYPMDVWGKGTTVTVSS VL: QTVVTQEPSLTVSPGGTVTLTCASSTGPVTSAYYPNWFQQKPGQAPRSLIYSINKKHSWTPARFSGSLLGGKAALTLSGVQPEDEADYYCLLSCGGAQPWVFGGGTKLTVQ	17.9
MGD47 (antibody) VH: QVRLQESGPGLVKPSGTLSLTCTVSGGSISGYKWWSWVRQAPGKGLEWIGQVYDDGDTNYNPDLKGRVALSVDKSKSRFSLSLASVTAADTAIYFCATISPLRPQSDTGDLPRPSISAEPGTAIPLGSQVTFVCRGPIGVQTFRLERESRALYNDSEDVSQVSPSASEARFRIDSVSEGNAGPYRCIYYKARRWSDQSDYLELLVKGEDVTWALPQSQLAPRACPQEDLNISTDIFSTNVWGKGTTVTVSS VL: AIRMTQSPASLSASVGDRVTITCRTSQDVGNYLDWYQQKPGKAPKLLIHGASTLQAGVPSRFNGSGSGTDFTLGISCVQSGDFAIYYCQQYYTSPPVFGQGTRLEIK	24.6

Problem: I'd like to know its % parasite recognition. The binder in question is MGC4 (antibody) VH: EVQLVESGGGLVQPGGSLRLSCEGSGFNSRSYWMTWVRQAPGKGLEWVASINQDGTEKNYVDSVKGRFTISRDSAKNSLYLQMSSLRADDTAVYYCARDRFCGGESHLHGEEDLPRPSISAEPDTVIPLGSHVTFVCRGPVGVHTFRLERGWRYNDTEDVSQAGPSESEARFRIDSVREGNAGLYRCIYYIAPKWSEQSDYLELRVKGGDVTWALLTYCGGDGEESDYPMDVWGKGTTVTVSS VL: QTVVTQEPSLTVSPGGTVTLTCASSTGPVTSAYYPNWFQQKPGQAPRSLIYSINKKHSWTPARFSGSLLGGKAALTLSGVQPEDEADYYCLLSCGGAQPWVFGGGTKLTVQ
Solution: 31.1
